The measurements presented in this section are drawn from paper PMC10238325.

experiment description: in vitro
Type: in vitro ADME, Desulfovibrio vulgaris
setup conditions: cells or culture medium
Where no end group is shown, it is not given here.
Overview of reported remaining at 168 h, 1 mg/mL across a group of sequences:
assay metric: remaining at 168 h, 1 mg/mL (%)

KKLLKWLKKLL [Peptide L5K5W] :: 80
KKLWKWLKKLL [Peptide L5K5W-W4I6] :: 86
FKKFWKWFRRF [Peptide S6L3-33] :: 85

---

experiment description: in vitro
Type: in vitro ADME, Desulfovibrio vulgaris
setup conditions: cells or culture medium
Where no end group is shown, it is not given here.
assay metric: remaining at 48 h, 1 mg/mL (%)

KKLLKWLKKLL [Peptide L5K5W] :: 91
FKKFWKWFRRF [Peptide S6L3-33] :: 93
KKLWKWLKKLL [Peptide L5K5W-W4I6] :: 94
FFGKVLKLIRKIF [DASamP1] :: 99
